TEST_SYSTEM: Cathepsin L (Homo sapiens, UniProt P07711)
Sequence (P07711 114-333, species assumed): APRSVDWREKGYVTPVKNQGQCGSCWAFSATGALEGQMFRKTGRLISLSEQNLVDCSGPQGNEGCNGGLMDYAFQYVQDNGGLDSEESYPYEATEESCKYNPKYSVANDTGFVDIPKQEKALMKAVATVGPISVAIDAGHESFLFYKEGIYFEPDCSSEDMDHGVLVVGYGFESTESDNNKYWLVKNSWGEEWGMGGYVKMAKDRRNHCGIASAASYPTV
MEASUREMENT_NOTES: Cathepsin L inhibition, fluorogenic peptide substrate kinetic assay (selectivity)
Assay type: biochemical
CONDITION_DESCRIPTION: ratio of cathepsin L inhibition constant to cathepsin S inhibition constant
RESULT_TYPE: Selectivity for Cat. S over Cat. L

Examples from the recorded data:
O=C(NCCNc1ccc(F)cc1)[C@@H](CC(=O)N1CCOCC1)CC1CCCCC1; + (+, >10)
O=C(NCCNc1ccc(OC(F)(F)F)cc1)[C@@H](CC(=O)N1CCOCC1)CC1CCCCC1; ++ (++, >100)
CC(C)[C@@H](CNc1ccc(OC(F)(F)F)cc1)NC(=O)[C@@H](CC(=O)N1CCOCC1)c1ccc(Cl)cc1; ++ (++, >100)
COc1ccc(NC[C@H](C)NC(=O)[C@H](CC2CCCCC2)NC(=O)N2CCOCC2)cc1; + (+, >10)
CC(C)[C@@H](CNc1ccc(OC(F)(F)F)cc1)NC(=O)[C@@H](CC(=O)N1CCOCC1)c1ccccc1; + (+, >10)

Report Selectivity for Cat. S over Cat. L for every entry below.
1. CC(C)[C@@H](CNc1ccc(OC(F)(F)F)cc1)NC(=O)[C@@H](CC(=O)N1CCOCC1)c1ccc(C(F)(F)F)cc1
2. Cc1cc(NCCNC(=O)[C@H](CCC(C)(C)C)CC(=O)N2CCOCC2)no1

1. ++ (++, >100)
2. + (+, >10)

###

TEST_SYSTEM: Cathepsin L (Homo sapiens, UniProt P07711)
MEASUREMENT_NOTES: Cathepsin L inhibition, fluorogenic peptide substrate kinetic assay (selectivity)
Format: biochemical
CONDITION_DESCRIPTION: ratio of cathepsin L inhibition constant to cathepsin S inhibition constant
RESULT_TYPE: Selectivity for Cat. S over Cat. L

Examples from the recorded data:
C[C@@H](CNc1ccc(OC(F)(F)F)cc1)NC(=O)[C@@H](CC(=O)N1CCOCC1)c1ccc(C(F)(F)F)cc1; + (+, >10)
COc1ccc(NCCNC(=O)[C@H](CC2CCCCC2)NC(=O)N2CCOCC2)cc1; + (+, >10)
CC(C)[C@@H](CNc1cccc(S(C)(=O)=O)c1)NC(=O)[C@@H](CC(=O)N1CCOCC1)c1ccc(F)cc1; + (+, >10)
C[C@@H](CNc1ccc(OC(F)(F)F)cc1)NC(=O)[C@@H](CC(=O)N1CCOCC1)CC(C)(C)C; ++ (++, >100)
C[C@@H](CN1CCc2cc(F)ccc21)NC(=O)[C@H](CC1CCCCC1)OC(=O)N1CCOCC1; + (+, >10)

Report Selectivity for Cat. S over Cat. L for every entry below.
1. CC(=O)NS(=O)(=O)c1ccc(NC[C@H](C)NC(=O)O[C@@H](CC2CCCCC2)C(=O)N2CCOCC2)cc1
2. O=C(NCCNc1ccc(F)cc1)[C@H](CC1CCCCC1)NC(=O)N1CCOCC1
3. Cc1cc(NC[C@H](C)NC(=O)[C@H](CC2CCCCC2)NC(=O)N2CCOCC2)no1
4. C[C@@H](CNc1ccc(OC(F)(F)F)cc1)NC(=O)[C@@H](CC(=O)N1CCOCC1)CC1CCCCC1
5. CC(C)[C@@H](CN1CC(C)(C)c2cc(F)ccc21)NC(=O)O[C@H](C(=O)N1CCOCC1)C1CCCCC1

["+ (+, >10)", "+ (+, >10)", "+ (+, >10)", "++ (++, >100)", "++ (++, >100)"]

Report Selectivity for Cat. S over Cat. L for every entry below.
1. C[C@@H](CNc1ccc(OC(F)(F)F)cc1)NC(=O)[C@@H](CC(=O)N1CCOCC1)c1ccccc1
2. CC1(C)CN(C[C@@H](NC(=O)[C@@H](CC(=O)N2CCOCC2)c2ccc(C(F)(F)F)cc2)C2CC2)c2ccc(F)cc21

1: + (+, >10); 2: ++ (++, >100)

Data origin, for the record: patent US7732449B2
